Recorded values, source patent US20190359687A1.

Below, each entry is listed alongside its reported percentage of input antibody bound.
Target: T1, human glycophorin A on human red blood cells or red blood cell membranes (human, UniProt P02724 20-150)
T1 construct: whole, on cells; also called hRBC; human RBC membranes
T1 sequence (looked up): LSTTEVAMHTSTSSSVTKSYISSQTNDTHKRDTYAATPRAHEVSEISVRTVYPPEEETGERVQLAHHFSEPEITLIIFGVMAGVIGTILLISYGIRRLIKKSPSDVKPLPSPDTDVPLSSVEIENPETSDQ
Assay: Fab on intact human RBC, unbound Fab by ELISA; 120 min after 200-fold dilution

{"BINDER": "TPP-7793, affinity matured 6C12 Fab (Fab, V domains shown, Tested as Fab) VH: EVQLVQSGAEVKKPGASVKVSCKASGYTFTRYTIHWVRQAPGQGLEWMGYINPSSGYTRYNPKFKGRVTMTRDKSTSTAYMELRSLRSDDTAVYYCWTGTRDYWGQGTTVTVSS VL: DIQLTQSPSFLSASVGDRVTITCRASSSVSYIYWFQQKPGKAPKLLIYATSTLQSGVPSRFSGSGSGTEYTLTISSLQPEDFATYYCHQRNSFPYTFGQGTKLEIK", "UNITS SYMBOL": "%", "percentage of input antibody bound": 86}
{"BINDER": "TPP-7792, affinity matured 6C12 Fab (Fab, V domains shown, Tested as Fab with a 6xHIS tag) VH: EVQLVQSGAEVKKPGASVKVSCKASGYTFTTYAIHWVRQAPGQGLEWMGYINPSSGYTRYNPKFKGRVTMTRDKSTSTAYMELRSLRSDDTAVYYCWTGTRDYWGQGTTVTVSS VL: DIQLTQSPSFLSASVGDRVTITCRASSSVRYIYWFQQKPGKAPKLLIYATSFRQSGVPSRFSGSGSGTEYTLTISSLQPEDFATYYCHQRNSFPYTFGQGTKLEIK", "UNITS SYMBOL": "%", "percentage of input antibody bound": 96}
{"BINDER": "TPP-5906, humanized and germlined 6C12 Fab; VL: (S24R, A26S, S49A, P54Q, F95Y); VH: (I48M, D56G, D66G, L70M, T72R) (Fab, V domains shown, The text says that a 6xHIS tag is present on the Fabs in the peptide ELISA; it is not in the printed chains) VH: EVQLVQSGAEVKKPGASVKVSCKASGYTFTTYTIHWVRQAPGQGLEWMGYINPSSGYTRYNPKFKGRVTMTRDKSTSTAYMELRSLRSDDTAVYYCQTGTRDYWGQGTTVTVSS VL: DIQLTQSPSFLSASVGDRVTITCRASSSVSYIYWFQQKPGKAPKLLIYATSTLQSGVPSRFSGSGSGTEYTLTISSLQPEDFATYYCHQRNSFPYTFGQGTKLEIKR", "UNITS SYMBOL": "%", "percentage of input antibody bound": 8}
